- assay_system: T1, AahII toxin of Androctonus australis hector (Androctonus australis hector, UniProt P01484 20-83)
- T1 sequence: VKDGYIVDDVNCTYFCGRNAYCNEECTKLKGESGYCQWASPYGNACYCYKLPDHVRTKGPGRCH
- assay_procedure: cell-based or functional assay
Survivors/Injected mice; i.c.v.; AahII:Nb 1:2; 2 LD50/mouse; 24 ng Nb/mouse values by entry
reported_endpoint: Survivors/Injected mice; i.c.v.; AahII:Nb 1:2; 2 LD50/mouse; 24 ng Nb/mouse

{"binder": "NbAahII05 (VHH, also called cluster G) VHH: QVQLQESGGGSVQAGGSLRLSCAASGYTCTKFNMGWYRQAPGKQREFVASIRRDSTIYYGDSVKGRFTISQDNAKNMVYLQMTSLKPEDSAMYYCSTRCLTSSVPYWGQGTQVTVSS", "endpoint_result": "4 survivors of 4 mice"}
{"binder": "NbAahII36 (VHH, also called cluster C) VHH: QVQLVESGGGSVQAGGSLRLSCAASGYTFSNYRMGWFRQAPGKECELVSTILTDGSTNYADSVKGRFTISRDNAKNTVYLLMNNLKAEDTAVYYCAAGNSRKGYLRRCGGTDFGYWGQGTQVTVSS", "endpoint_result": "1 survivors of 4 mice"}
{"binder": "NbAahII20 (VHH, Purified from E. coli periplasm with His6; also called NbAahIKO (I); cluster I) VHH: QVQLQESGGGLVQPGGSLRLSCTASGFDFSRYVMSWVRQAPGKDFEWISGIMPLSSAGTTYADAVKGRFTISRDNAKNTLYLQLNNLKTEDTAIYYCAKGVYTTYIGGARGQGTQVTVSS", "endpoint_result": "3 survivors of 4 mice"}
{"binder": "NbAahII17 (VHH, also called cluster D) VHH: DVQLVESGGGSVQAGGSLRLSCAASGVTLNNYCVGWFRQAPGKEREGVAAFKSGGSFTYYADSVKGRFTISKDNAKNTMYLQMNSLNSDDTAMYYCAVTRNSCLGLAKFRPSSYNYWGQGTQVTVSS", "endpoint_result": "0 survivors of 4 mice"}
{"binder": "NbAahII38 (VHH, also called cluster H) VHH: DVQLVESGGGLVQPGGSLRLSCAASGFTFSNYVMSWVRQAPGKGLEWVSGINHGGGIQDYADSVKGRFTISRDNAKNTLYLQLNSLKIEDTAMYYCVRASHYRDYGPTIYSWGQGTQVTVSS", "endpoint_result": "1 survivors of 4 mice"}
